- assay-system: IDO (Homo sapiens)
- Construct: endogenous in cells
- Sequence (P14902 whole entry): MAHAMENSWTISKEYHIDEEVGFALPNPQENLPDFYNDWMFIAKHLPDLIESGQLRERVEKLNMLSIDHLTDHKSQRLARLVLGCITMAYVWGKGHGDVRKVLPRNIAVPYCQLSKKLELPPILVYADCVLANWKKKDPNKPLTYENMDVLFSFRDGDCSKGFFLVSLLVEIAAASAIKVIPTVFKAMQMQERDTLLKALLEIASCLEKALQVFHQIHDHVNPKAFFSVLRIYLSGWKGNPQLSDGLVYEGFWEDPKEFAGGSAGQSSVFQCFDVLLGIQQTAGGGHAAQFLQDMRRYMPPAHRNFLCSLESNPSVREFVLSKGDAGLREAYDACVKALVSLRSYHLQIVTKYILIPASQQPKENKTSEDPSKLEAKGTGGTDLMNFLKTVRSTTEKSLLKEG
- experiment-notes: Hela cell-based IDO inhibitory activity test (IFNγ added)
- assay-conditions: Hela cells with IFNγ, 48 hours incubation, OD 480 nm
- Description: 2. Hela Cell-Based IDO Inhibitory Activity Test Method The first step: cell plating. Prepare complete medium and mix well. Cell lines that are in good growth state are selected. […] Take 70 μL of the supernatant and transfer to a 3635 UV plate, add 70 μL of the reaction solution, and shake for 2 minutes to make the reaction uniform. […] The 96-well plate was allowed to stand at room temperature for 10 minutes to stabilize the luminescence signal. […]
quantity-measured: IC50

Worked set:
{"compound": "O=C(C[C@@H]1C[C@@H]2C[C@@H](N3CCCc4ccccc43)C[C@@H]2C1)Nc1ccc(Cl)cc1", "IC50": "> 100 nM"}
{"compound": "C[C@@H](C(=O)Nc1ccc(Cl)cc1)[C@H]1C[C@H]2C[C@@H](c3ccnc4ccc(F)cc34)C[C@H]2C1 (single isomer, unassigned)", "IC50": "≤ 5 nM"}
{"compound": "C#Cc1ccc(NC(=O)C[C@H]2C[C@H]3CC(c4ccnc5ccc(F)cc45)C[C@H]3C2)cc1 (stereo partly drawn)", "IC50": "≤ 5 nM"}
{"compound": "O=C(Nc1ccc(Cl)cn1)C(F)(F)[C@H]1C[C@H]2C[C@@H](c3ccnc4ccc(F)cc34)C[C@H]2C1", "IC50": "25 to 100 nM"}
{"compound": "O=C(Nc1ccc(Cl)cc1)N1C[C@H]2C[C@@H](c3ccnc4ccc(F)cc34)C[C@H]2C1", "IC50": "> 100 nM"}

### Prompt Returns the measured IC50 for the input compound. Input: O=C(Nc1ccc(Cl)cc1)O[C@@H]1C[C@@H]2C[C@H](c3ccnc4ccc(F)cc34)C[C@@H]2C1
### Response > 100 nM

Attribution: patent US11266640B2
